biological target: DLG4_1, P78352; experiment: holdup assay; design: key: below the threshold = too weak to quantify, mostly under pKd 3.1 to 4; settings: plain residues with an end cap or a label only (N-terminal biotin on a linker: ado-ado)
Sequence (P78352 62-152): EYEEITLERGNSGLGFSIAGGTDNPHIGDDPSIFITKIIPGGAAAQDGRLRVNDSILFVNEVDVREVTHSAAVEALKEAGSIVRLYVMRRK
quantity-kind: pKd

binder	result
PALKNGQYWV [CSPG4, Q6UVK1]	below the threshold
QKASRNESTF [POLR1D, P0DPB6]	below the threshold
MQILSKPEFI [NPSR1, Q6W5P4]	below the threshold
QKNKDREYYV [NRXN3, Q9HDB5]	below the threshold
VYEVPVETKF [SLC26A3, P40879]	below the threshold
GTMFLRETSL [GUCY1A2, P33402]	4.03
KAEEKPPSKV [SCN4B, Q8IWT1]	below the threshold
VCMGDHWFDV [PRKN, O60260]	below the threshold
DYSNLRETDI [ADRA1D, P25100]	3.89
